From: ChEMBL document CHEMBL2346586

Provide the recorded log10 of microsomal CLint for the entries that follow.
method: Intrinsic clearance in human liver microsomes
Assay type: ADME, Microsome
test-context: read-out: CLH
Log scale reminder: microsomal CLint in µL/min/mg, then log10 taken.

Query: log10 of microsomal CLint for N#Cc1cc2c(ccn2-c2ccnc(N)n2)cn1 ?
Result: 1.97

Query: Please do the same for Nc1nccc(-n2ccc3cnccc32)n1 as well.
Result: 1.79

Query: Another compound: Nc1nccc(-n2cc(-c3cccnc3Cl)c3cnccc32)n1
Result: 1.32

Query: Now consider Nc1nccc(-n2ccc3cnc(Cl)cc32)n1 and answer again.
Result: 2.02

Query: Moving on to N#Cc1ccc2ccn(-c3ccnc(N)c3)c2c1
Result: 2.30

Query: Request: Nc1nccc(-n2ccc3cccnc32)n1
Result: 2.53

Query: Proceed to N#Cc1cnc2ccn(-c3ccnc(N)n3)c2c1
Result: 2.03

Query: Same lookup for N#Cc1ccc2ccn(-c3ccnc(N)n3)c2c1 , please.
Result: 2.63

Query: # iterate: N#Cc1ccc2ccn(-c3cc(N)ncn3)c2n1
Result: 1.53

Query: Can you handle Nc1nccc(-n2cc(-c3cccnc3Cl)c3cnc(Cl)cc32)n1 next?
Result: 1.48

Query: What do you have for Nc1nccc(-n2ccc3ncccc32)n1 ?
Result: 1.78
